# reported concentration at 0.75 hr; entries follow
- experiment-description: Brain distribution study
- Format: in vivo, male C57BL/6 mice
- experimental-context: male, C57BL/6, mouse, brain, po, 20 mg/kg, PO 20 mg/kg, male C57BL/6 mice, 0.75 hr; read-out: brain Concentration, Individuals

{"compound": "CNC(=O)c1ncn2c(=O)n(CCF)nnc12 [Compound I-1]", "readout-units": "ng/g", "concentration at 0.75 hr": 2290}
{"compound": "NC(=O)c1ncn2c(=O)n(CCF)nnc12 [KL-50]", "readout-units": "ng/g", "concentration at 0.75 hr": 3300}

* * *

- experiment-description: Brain distribution study
- Assay type: in vivo, male C57BL/6 mice
- experimental-context: male, C57BL/6, mouse, brain, po, 20 mg/kg, PO 20 mg/kg, male C57BL/6 mice, 4 hr, N=3

{"structure": "NC(=O)c1ncn2c(=O)n(CCF)nnc12", "concentration at 4 hr [ng/g]": 270}

* * *

- experiment-description: Pharmacokinetic study, plasma
- Type: in vivo
- experimental-context: male, C57BL/6, mouse, plasma, po, 20 mg/kg, male C57BL/6 mice, 0.75 hr, read-out: plasma Concentration, Individuals

{"molecule": "NC(=O)c1ncn2c(=O)n(CCF)nnc12 [KL-50]", "concentration at 0.75 hr (ng/mL)": 9590}
{"molecule": "CNC(=O)c1ncn2c(=O)n(CCF)nnc12 [Compound I-1]", "concentration at 0.75 hr (ng/mL)": 3980}

* * *

- experiment-description: Brain distribution study
- Assay type: in vivo, male C57BL/6 mice
- experimental-context: male, C57BL/6, mouse, brain, po, 20 mg/kg, PO 20 mg/kg, male C57BL/6 mice, 8 hr, N=3
assay-metric: concentration at 8 hr (ng/g)

{"compound": "NC(=O)c1ncn2c(=O)n(CCF)nnc12 [KL-50]", "assay-metric": "concentration at 8 hr", "experimental-result": 49.6}

* * *

- experiment-description: Pharmacokinetic study, plasma
- Format: in vivo
- experimental-context: mouse; plasma, PO 20 mg/kg, male C57BL/6 mice
Form field: half-life (one value per entry).
assay-metric: half-life (h)

{"compound": "NC(=O)c1ncn2c(=O)n(CCF)nnc12 [KL-50]", "experimental-result": 1.49}
{"compound": "CNC(=O)c1ncn2c(=O)n(CCF)nnc12 [Compound I-1]", "experimental-result": 0.621}

* * *

- experiment-description: Brain distribution study
- Assay type: in vivo, male C57BL/6 mice
- experimental-context: male, C57BL/6, mouse, brain/plasma, po, 20 mg/kg, PO 20 mg/kg, male C57BL/6 mice, 0.75 hr, N=3; read-out: Brain Concentration/Plasma Concentration, Mean
- Protocol: Compound KL50 dosing solution: 3.39% DMSO+96.61% (10% HP-β-CD in saline) at 2 mg/mL; • 1) Weigh 17.39 mg of compound KL50 into a clean tube. • 2) Add 0.295 mL DMSO into the tube containing the compound. • 3) Vortex the tube for 3 min and sonicate it for 4 min. • 4) Add 8.400 mL 10% HP-β-CD in saline into the tube and vortex the tube for 3 min. […]
The entries below come with measured Kp at 0.75 hr values attached.

{"compound": "CNC(=O)c1ncn2c(=O)n(CCF)nnc12 [Compound I-1]", "Kp at 0.75 hr": 0.586}
{"compound": "NC(=O)c1ncn2c(=O)n(CCF)nnc12 [KL-50]", "Kp at 0.75 hr": 0.318}

Recorded values, source patent US20240400572A1.
